Protocol Details: S. cerevisiae growth modulation with rapamycin, primary screen, strain BY4716, OD600, 96 h (AID 1091); note: test concentration not given here
Details: higher = more signal, called active from +8 up or from −8 down
Classify as follows. Reported z-score greater than or equal to 0.09: MET. Reported z-score below: NOT MET.

// below: answered compounds
[[record]]
compound = "CC(C)CNC(=O)[C@@]1(c2ccc([N+](=O)[O-])cc2)CC(=O)N(CC23CC4CC(CC(C4)C2)C3)[C@@H]1c1ccc(CO)cc1"
cat = "MET"

[[record]]
compound = "CCOc1cc(C(O)C2C=CC3C(=O)N(c4ccccc4)C(=O)C3N2Nc2ccc([N+](=O)[O-])cc2)ccc1O (stereo not given)"
cat = "NOT MET"

[[record]]
compound = "C=CCN1C(=O)[C@]2(O[C@H](CCO)[C@@H]([Si](C)(C)c3ccc(OC)cc3)[C@@H]2C)c2cc(NC(=O)[C@H](C)O)ccc21"
cat = "MET"


Check if z-score >= 0.09 (inclusive). Item: O=C(CCN1CCOCC1)c1cccc(O)c1
NOT MET

Hi, just wondering whether COCC(=C=CC[C@H](O)c1ccc(OCCO)cc1)C[C@H](O)c1cc(Cl)cc(Cl)c1O shows z-score of 0.09 or higher.
NOT MET

Please check the record CC(C)c1ccc(NN2C(C(O)c3ccc(N(C)C)cc3)C=CC3C(=O)N(c4ccccc4)C(=O)C32)cc1 (stereo not given) and state if its z-score is at or above 0.09.
MET

Answer whether z-score of COCC(=C=CC[C@@H](O)c1ccc(CO)o1)CCO is greater than or equal to 0.09.
NOT MET

Is reported z-score greater than or equal to 0.09 here: COc1ccccc1CN1C(=O)c2ccccc2[C@@H](C(=O)NCCN2CCOCC2)[C@@H]1c1ccc(CO)cc1
NOT MET

Can Cc1ccc(S[C@]2(C(=O)NC3CC3)CC(=O)N(Cc3ccccc3)[C@@H]2c2ccc(CO)cc2)cc1 be said to have z-score at or above 0.09?
NOT MET

====

Protocol Details: P. aeruginosa biofilm formation inhibitors, primary screen, PAO1 strain, BacTiter-Glo luminescence, LB-PBS (AID 1144)
Details: 12 h, higher = more signal
Response key: Met means z-score >= 0.3; Not met means z-score < 0.3.

[[record]]
compound = "COC(=O)[C@]1(Cc2ccccc2N=[N+]=[N-])N=C(c2ccc(OCCCO)cc2)O[C@@H]1c1ccccc1N=[N+]=[N-]"
cat = "Met"

[[record]]
compound = "CC(C)CNC(=O)[C@@]1(c2ccc([N+](=O)[O-])cc2)CC(=O)N(CC23CC4CC(CC(C4)C2)C3)[C@@H]1c1ccc(CO)cc1"
cat = "Met"

[[record]]
compound = "COCCOC(=O)N1C(=O)[C@@]2(c3ccccc31)[C@H](C(=O)NC[C@H](O)c1ccccc1)[C@H]1C(=O)O[C@H](c3ccccc3)[C@H](c3ccccc3)N1[C@@H]2c1ccc(OCCO)cc1"
cat = "Not met"

[[record]]
compound = "C=CCC(OC(C)=O)[C@@H]1[C@@H](N(Cc2cccc3ccccc23)C(=O)c2ccc(C)cc2)c2cc(OCCCO)ccc2N1C(=O)Cc1ccc(OC)cc1 (some centres undefined)"
cat = "Not met"

[[record]]
compound = "COC(=O)[C@@]1(Cc2ccccc2)[C@H]2c3cc(C(=O)N4CCCC4)n(Cc4ccc(C)o4)c3C[C@H]2CN1C(=O)c1ccccc1"
cat = "Not met"

[[record]]
compound = "NCCCCCCNC(=O)[C@H]1C[C@H]2C(=O)NCC(=O)N2[C@H]1c1cccc(OCCO)c1"
cat = "Not met"

[[record]]
compound = "COCCOC(=O)N1C(=O)[C@@]2(c3ccccc31)[C@H](c1ccc(O)cc1)N1[C@H](c3ccccc3)[C@H](c3ccccc3)OC(=O)[C@H]1[C@@H]2C(=O)N1CCc2cc(OC)c(OC)cc2C1"
cat = "Not met"

[[record]]
compound = "O=C1O[C@H](c2ccccc2)[C@H](c2ccccc2)N2[C@H]1[C@@H](C(=O)O)[C@]1(C(=O)Nc3ccc(C#CC4(O)CCCCCC4)cc31)[C@H]2c1ccc(OCCO)cc1"
cat = "Not met"


Could you now consider this next compound?
Quick check, z-score >= 0.3? C=CC[C@@]1(C(=O)O)N=C(c2ccc(OCCCO)cc2)O[C@@H]1c1ccccc1N=[N+]=[N-]
Met
